These entries and their values trace back to ChEMBL document CHEMBL1131409.

Listed compounds paired with reported pIC50
System: SK-OV-3
protocol: In vitro cytotoxicity against SKOV-3 ovarian cells using the sulforhodamine B(SRB) assay.
Format: functional, cell-based
measurement_context: Homo sapiens
pIC50: −log10 of the molar value.

CC[N+](C)(CC)CCC(=O)Nc1ccc(NC(=O)CC[N+](C)(CC)CC)c2c1C(=O)c1ccccc1C2=O :: < 4.60
O=C(CCN1CCOCC1)Nc1cccc2c1C(=O)c1cccc(NC(=O)CCN3CCOCC3)c1C2=O :: < 4.60

The record that follows has no pIC50 shown yet.
Would you kindly share the measured pIC50 for `O=C(CCN1CCOCC1)Nc1ccc2c(c1)C(=O)c1ccc(NC(=O)CCN3CCOCC3)cc1C2=O` ?
< 4.60
